# Test system: P12-Ichikawa
# assay.method.text: cell viability relative to DMSO control; higher = less cytotoxic
# condition.context: RPMI 5 mM glucose + 10% FBS; 48 h; 0.0632 µM
measure: cell viability (%)
// note: answer is a bare numeric in %

Example entries and their recorded answers appear below.
C[C@@H]1CC[C@@]2(OC1)OC1CC3C4CC=C5CC(O)CCC5(C)C4CCC3(C)C1[C@@H]2C (stereo not given in full)	106
OC1=CC=C(C=C1)\C2=C\C(=O)C3=C(O2)C=C(O)C=C3O	105
NC\1=N\C(=O)N(\C=C1)[C@H]\2[C@H](O)[C@H](O)C(=C2F)\CO	103

Qu. # lookup: cell viability of "Cc1ccc(-c2ncn(-c3ccc(Nc4nccc(-c5cccc(N6CCOCC6)c5)n4)cc3)n2)cn1"
Ans. 94.5

Qu. # lookup: cell viability of "CC(C)c1ccccc1Cc1cc(C(=O)Nc2ccc([S+](=O)([O-])c3ccccc3C(C)(C)C)cc2)c(O)c(O)c1O"
Ans. 118

Qu. # lookup: cell viability of "CCCCCCCCCCCCCCCCCCOP(=O)([O-])OC1CC[N+](C)(C)CC1"
Ans. 107

Qu. # lookup: cell viability of "CCCCCCCCc1ccc(CCC(N)(CO)CO)cc1"
Ans. 119

Qu. # lookup: cell viability of "CN(C)c1ccc2cc(C(=O)N[C@@H](CCCNC(=N)CCl)C(=O)NCc3ccccc3)ccc2c1"
Ans. 106

Qu. # lookup: cell viability of "CN(C)CCN(Cc1ccc(Cl)cc1)c1ccccn1.Cl"
Ans. 80.5

Qu. # lookup: cell viability of CC(C)NCC(O)c1ccc(NS(C)(=O)=O)cc1 (stereo not given)
Ans. 97.9
